I'd appreciate it if you could supply % inhibition apPOL 180' values for the items below.
Target: P. falciparum apicoplast DNA polymerase (Pf-apPOL) (Plasmodium falciparum, UniProt Q8ILY1)
Sequence (Q8ILY1 entry or part of it): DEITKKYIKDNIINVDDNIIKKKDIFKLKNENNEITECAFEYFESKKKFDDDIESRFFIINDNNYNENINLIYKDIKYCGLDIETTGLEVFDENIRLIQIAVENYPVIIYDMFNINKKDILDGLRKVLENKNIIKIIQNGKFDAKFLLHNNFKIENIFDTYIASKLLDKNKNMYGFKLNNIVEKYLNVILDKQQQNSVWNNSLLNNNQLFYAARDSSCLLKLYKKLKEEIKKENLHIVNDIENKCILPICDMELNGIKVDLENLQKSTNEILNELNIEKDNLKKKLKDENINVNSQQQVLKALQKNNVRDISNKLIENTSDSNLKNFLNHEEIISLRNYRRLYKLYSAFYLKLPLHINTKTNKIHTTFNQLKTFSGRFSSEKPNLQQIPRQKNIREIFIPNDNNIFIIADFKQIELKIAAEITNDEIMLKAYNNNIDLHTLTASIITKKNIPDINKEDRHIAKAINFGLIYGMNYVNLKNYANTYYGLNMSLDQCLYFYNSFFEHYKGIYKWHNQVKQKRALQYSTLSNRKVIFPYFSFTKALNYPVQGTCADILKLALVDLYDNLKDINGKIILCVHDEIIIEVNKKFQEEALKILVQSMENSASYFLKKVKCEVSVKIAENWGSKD
Assay: Fluorescence-based high-throughput DNA polymerase assay (molecular beacon), primary screen and dose-response;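 on % inhibition apPOL 180': test concentration in µM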
Type: biochemical
Conditions: DRC-2; 180'; concentration 2.5
Report the value in % with no unit label.

Look at this compound and give its reported % inhibition apPOL 180'. COc1cc(NC(=O)c2ccccc2)c(OC)cc1NC(=O)Cc1cccs1 22

Would you kindly repeat that for COc1ccc(C)cc1NC(=O)Cn1ccc2c(=O)[nH]ccc21 [Molecule 15, COc1ccc(cc1NC(=O)Cn1ccc2c1cc[nH]c2=O)C] ? -8

For COc1ccc(NC(=O)Cn2ccc3c(=O)[nH]ccc32)cc1Cl [Molecule 10, COc1ccc(cc1Cl)NC(=O)Cn1ccc2c1cc[nH]c2=O] then? 8

// query: CC(C)(C)OC(=O)COc1ccc2cc(-c3ccccc3)c(=O)oc2c1 -1.44

---

Target: P. falciparum apicoplast DNA polymerase (Pf-apPOL) (Plasmodium falciparum, UniProt Q8ILY1)
Assay: Fluorescence-based high-throughput DNA polymerase assay (molecular beacon), primary screen and dose-response
Assay type: biochemical
Details: DRC-1; 10'; concentration 40
Result type: % inhibition Apo pol 10'

// % inhibition Apo pol 10' lookup, key: CCC(C)NC(=O)c1cc(NC(C)=O)cc2nc(C)ccc12 (stereo not shown) [KU0206314] 74.587%

What about COc1ccc(-c2c(C(F)(F)F)nn3c(=O)cc(-c4cccc([N+](=O)[O-])c4)[nH]c23)cc1 [Molecule 16] ? 96.2671%

Further, for O=C1c2ccccc2C(=O)N1Oc1ccc([N+](=O)[O-])c([N+](=O)[O-])c1 [Molecule 66] ? 53.6709%

Continue with COc1ccc2c(c1)C(c1ccccc1OC)CC(=O)O2 (stereo not shown) [Molecule 38, COc1ccc2c(c1)C(CC(=O)O2)c1ccccc1OC] 94.6893%

Moving on to the next compound: CC1(C)CC(=O)C2=C(C1)OC1=C(C(=O)CC(C)(C)C1)C2c1ccc(O)cc1 [KU0194226] 75.7382%

What about this compound? O=C(Nc1ncc([N+](=O)[O-])s1)c1ccc2c(c1)C(=O)N(N1C(=O)c3ccccc3C1=O)C2=O [KU0026378] 69.5136%

Now this one: CC(C)(C)OC(=O)COc1ccc2cc(-c3ccccc3)c(=O)oc2c1 [Molecule 81] 16.7579%

Record: Nc1c(S(=O)(=O)O)cc(Nc2ccccc2)c2c1C(=O)c1ccccc1C2=O [KU0045407] 98.9011%

What do you get for O=C(Nc1nnc(-c2cccs2)o1)c1ccc([N+](=O)[O-])o1 [Molecule 74] ? 61.6111%

Same again, this time with Cc1cccc(-c2nnc3ccc(NS(=O)(=O)c4ccc(C)c(C)c4)nn23)c1 [Molecule 40] 83.8171%

# repeat for CN1CC(=Cc2ccco2)C(=O)C(=Cc2ccco2)C1 [Molecule 65, CN1CC(=Cc2ccco2)C(=O)C(=Cc2ccco2)C1] 67.6613%

Please answer likewise for COc1ccc(C(=O)N2CCc3c(nc4cc(-c5ccccc5Cl)[nH]n4c3=O)C2)cn1 [Molecule 26] 91%

# iterate: Cc1ccccc1C(=O)N1CCc2c(nc3cc(-c4ccccc4)[nH]n3c2=O)C1 [Molecule 41] 80.8347%

Now the compound Cc1ccc(NC(=O)Cn2ccc3c(=O)[nH]ccc32)cc1F [Molecule 48, O=C(Cn1ccc2c1cc[nH]c2=O)Nc1ccc(c(c1)F)C] 70.0783%

Try this compound too: O=C(Cn1ccc2c(=O)[nH]ccc21)Nc1cccc(Cl)c1 [Molecule 23, O=C(Cn1ccc2c1cc[nH]c2=O)Nc1cccc(c1)Cl] 80.7703%

Now consider O=[N+]([O-])c1cc2c(cc1CN1CCCCCC1)OCO2 [KU0004987] . 59.1088%

Repeat for the following compound: O=C(Nc1cccc(C(=O)Nc2ccc(S(=O)(=O)[O-])c3cc(S(=O)(=O)[O-])cc(S(=O)(=O)[O-])c23)c1)Nc1cccc(C(=O)Nc2ccc(S(=O)(=O)[O-])c3cc(S(=O)(=O)[O-])cc(S(=O)(=O)[O-])c23)c1.[Na+].[Na+].[Na+].[Na+].[Na+].[Na+] [Molecule 39] 96.2832%

Do the same for CCCCC(=O)N1CCc2c(nc3cc(-c4ccccc4Cl)[nH]n3c2=O)C1 [Molecule 37] please 79.9976%

And the next one, O=C(NNC(=O)C(F)(F)Sc1ccccc1)c1ccsc1 [Molecule 68, O=C(C(Sc1ccccc1)(F)F)NNC(=O)c1cscc1] ? 67.1681%

Param item: Cc1ccc(CCNC(=O)c2cnn3c(O)c(Cc4ccccc4F)c(C)nc23)cc1 [KU0097142] 80.8586%

Please do the same for O=C(CSc1nnc(-c2ccco2)[nH]1)c1ccc(Cl)cc1 [KU0029065] as well. 82.8592%

Next compound: CCOc1ccc(/C=C2\N=C(c3cc([N+](=O)[O-])cc([N+](=O)[O-])c3)OC2=O)cc1 [Molecule 97] 94.8761%

Same question for O=c1cc(CN2CCCCC2)c2cc3c(cc2o1)OCO3 [Molecule 56, O=c1cc(CN2CCCCC2)c2c(o1)cc1c(c2)OCO1] please. 45.3079%

Same read-out for COc1cc(/C=C2\S/C(=N/C(C)=O)NC2=O)cc(Br)c1OCC(=O)O [KU0057841] ? 63.4189%

Now consider O=C(O)c1c(F)c(F)c(-c2c(F)c(F)c(C(=O)O)c(F)c2F)c(F)c1F [KU0008974] . 61.4201%

Repeat for the following compound: CCCCOC(=O)CCCCCN1C(=O)C(=Cc2ccc(OC)cc2)SC1=S [Molecule 75] 17.437%

What do you get for CCCCCCCCCCCCCCCCCC(=O)CCN(C)C [KU0271928] ? 29.808%

Quick one: CCOc1ccccc1-c1nc(-c2ccc(=O)[nH]c2)no1 [Molecule 76, CCOc1ccccc1c1onc(n1)c1ccc(=O)[nH]c1] 53.5893%

Consider next the compound COc1ccc2c(c1)CCc1c-2nc2ccc(Br)cc2c1C(=O)O [KU0059417] in the same way. 69.0477%

Let us now turn to O=C(NCC1CCN(C2CCCC2)CC1)C(=O)NC1CCCC1 [KU0199596] 52.3157%

Try the compound O=C1C(=Cc2ccncc2)Oc2c1ccc1c2CN(Cc2ccc3c(c2)OCO3)CO1 [KU0199357] 58.0959%
